system: OVCAR-3 ovarian; assay: NCI-60 one-dose screen, 48 h; conditions: 10 µM unless noted
This is part of a sample that, as a whole, favours compounds with a hit. Of some 83,000 tested, about 20% had one in any assay. The source made the active and inactive calls. The calls were made as follows: active = growth percent below 10; inactive = the rest.
Could you please pick one outcome from this set? t = active, f = inactive

What was the test verdict on Cc1[nH]c(-c2nc3ccccc3[nH]2)c(C)c1C(=O)N1CCOCC1 ?
f

Now the same for Cn1ccc(Cc2cnc(N)s2)n1
f

Now the same for COc1ccc(C2=NC(=O)NC2c2ccc(OC)cc2)cc1 (stereo not given)
f

Now the same for CN(C)c1ccc(/C=N/NC(=O)COc2cc(=O)n(C)c3ccccc23)cc1
f

Now the same for CCOC(=O)N1CCc2c(sc3c2C(=O)N[C@H](c2ccc(OC)cc2)N3)C1
f

Now the same for CCn1c(Sc2nnc(NC(C)=O)s2)nc2c1c(=O)n(C)c(=O)n2C
f

Now the same for O=c1[nH]c(=O)n(C2CC(O)C(CO)O2)cc1CO (stereo not given)
f

Now the same for CN(C)c1ccc2cc(-c3ccc(Cl)c(Cl)c3)c(N)nc2c1
f

Now the same for COc1cc(NC(=O)c2cc(O)c(CC=C(C)C)c(O)c2)cc2c1O[C@]1(C)CC[C@@H](O)C(C)(C)[C@H]1C2
f

Now the same for CN1CCN(C(=O)[C@@]2(C)CC[C@]3(C)CC[C@]4(C)C(=CC[C@@H]5[C@@]6(C)C/C(=C/c7ccncc7)C(=O)C(C)(C)[C@@H]6CC[C@]54C)[C@@H]3C2)CC1
f

Now the same for Cc1cc(=O)[nH]c(N/N=C/c2cc(Br)ccc2O)n1
t

Now the same for O=C1CCC(N2C(=O)c3cccc(NCCCC4CCN(CCNC(=O)c5cc6c(o5)C(=O)c5ccccc5C6=O)CC4)c3C2=O)C(=O)N1 (stereo not given)
t

Now the same for CS(=O)(=O)c1ccc(-c2nc3cc(Cl)ccc3n2CC(=O)N/N=C/c2ccc(Cl)cc2)cc1
f

Now the same for Cc1ccc(/C=C(\C#N)n2nnc3cc(Cl)c(Cl)cc32)cc1
t

Now the same for CCN(CC)CCCNC(=O)c1ccc(N)cc1O
f

Now the same for C=C1C(=O)O[C@H]2[C@H]1CC/C(C(=O)NCCCCCCCCNC(=O)/C1=C/CC[C@@]3(C)O[C@H]3[C@H]3OC(=O)C(=C)[C@@H]3CC1)=C\CC[C@@]1(C)O[C@@H]21
f

Now the same for CNC=O
f

Now the same for CC(C)c1ccc(NC(=O)Cc2ccc(Nc3ncnc4cc(-c5cnn(CCN(C)C)c5)ccc34)cc2)cc1
t

Now the same for O=C(Nc1ccc(N2CCCCC2)c(Cl)c1)c1ccc(Br)o1
f

Now the same for CCCCNCC(=O)Nc1ccc(C(=O)OCC)cc1
f

Now the same for Oc1ccccc1-c1nc2ccccn2c1NCCN1CCOCC1
f

Now the same for CNC1(C#N)CCN(Cc2ccccc2)CC1
f

Now the same for O=S(=O)(Cc1ccccc1)c1nc2ccccc2s1
f

Now the same for Clc1ccc(-c2cn(-c3ccccc3)c(-c3ccccc3)n2)cc1
f

Now the same for Nc1nc(N)c(-c2ccc(Cl)cc2)c(/C=C/c2ccc([N+](=O)[O-])cc2)n1
f

Now the same for Cc1cnc(Nc2ccc(N3CCN(C)CC3)cc2)nc1Nc1ccc(Cl)c(NS(=O)(=O)C(C)(C)C)c1
t

Now the same for CN(C)c1ccc2cc(-c3ccccc3F)c(N)nc2c1
t

Now the same for COC1=CC(c2ccc[nH]2)=N/C1=C\c1[nH]c(C)c(C(=O)OCCn2cc(CCC[C@@H]3Cc4cc(O)ccc4C4CC[C@]5(C)[C@@H](O)CC[C@H]5C43)nn2)c1C (stereo not given in full)
f

Now the same for COc1cc(/C=C/c2nc(Nc3ccc(S(=O)(=O)Nc4cc(C)on4)cc3)c3ccccc3n2)ccc1O
f

Now the same for COc1ccc(NC(=O)C(=O)c2c[nH]c3ccc(F)cc23)cc1
f

Now the same for C/C(Cc1ccc(Cl)cc1)=C(/c1ccc(Cl)cc1)c1ccc(OCCN(C)C)cc1
f

Now the same for O=C(Nc1ccccn1)[C@H](O)[C@@H](O)C(=O)N1CCOCC1
f

Now the same for C#CC[C@H](N)C(=O)O
f

Now the same for CCN(CC)CCNc1ccc(C)c2sc3cc(C)ccc3c(=O)c12
f

Now the same for COc1cc(-c2ccc(-c3ccc(C(=N)N)nc3)s2)cc(OC)c1OC
t

Now the same for C=C1c2c(C)nn(-c3ccc(O)cc3)c2N(C)C23C[C@@H]1C1(C)c4c(C)nn(-c5ccc(O)cc5)c4N(C)C(C)(C[C@H]12)C3 (stereo not given in full)
f

Now the same for C=C1C(=O)O[C@H]2[C@H]1CC/C(Cn1cc(CNCCc3c[nH]c4ccccc34)nn1)=C\CC[C@@]1(C)O[C@@H]21
f

Now the same for N=C(N)c1ccc(-c2ccc(-c3ccc(Cl)cc3Cl)o2)nc1
t

Now the same for CNCCNc1nc2ccccc2c2c(=O)c3cc(F)ccc3oc12
f

Now the same for CCOc1cc(C2C(Cl)C(=O)N2n2cnnc2)ccc1O (stereo not given)
f
